The measured values listed here are drawn from paper PMC12416549.

Target: T1, TNFR1 (Homo sapiens, UniProt P19438)
T1 chain: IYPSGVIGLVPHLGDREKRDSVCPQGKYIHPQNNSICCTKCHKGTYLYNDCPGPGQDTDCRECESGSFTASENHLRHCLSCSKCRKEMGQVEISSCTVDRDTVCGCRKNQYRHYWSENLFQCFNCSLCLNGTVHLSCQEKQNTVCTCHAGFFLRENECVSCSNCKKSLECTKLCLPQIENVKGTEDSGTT
Experiment: yeast display SC50
Readout: apparent Kd (screen) (nM)

Study these solved cases before continuing.
Binder: E44K (designed binder) SMEEEVEKAAKEYEKKKKEAIEKHLEKLKAKDKEAAERFLKELKEAAKEYAKDEAKTMSEEEAKRRAKKYKEKVLLSELSEEEQKEIKEAEEKLVRTILKYVEEAAK
Observed value: 0.956

Binder: E37P (designed binder) SMEEEVEKAAKEYEKKKKEAIEKHLEKLKAKDKEAAPRFLKELEEAAKEYAKDEAKTMSEEEAKRRAKKYKEKVLLSELSEEEQKEIKEAEEKLVRTILKYVEEAAK
Observed value: 0.49

Binder: Y70H (designed binder) SMEEEVEKAAKEYEKKKKEAIEKHLEKLKAKDKEAAERFLKELEEAAKEYAKDEAKTMSEEEAKRRAKKHKEKVLLSELSEEEQKEIKEAEEKLVRTILKYVEEAAK
Observed value: 5.31

Binder: E34H (designed binder) SMEEEVEKAAKEYEKKKKEAIEKHLEKLKAKDKHAAERFLKELEEAAKEYAKDEAKTMSEEEAKRRAKKYKEKVLLSELSEEEQKEIKEAEEKLVRTILKYVEEAAK
Observed value: 0.446

Binder: D32L (designed binder) SMEEEVEKAAKEYEKKKKEAIEKHLEKLKAKLKEAAERFLKELEEAAKEYAKDEAKTMSEEEAKRRAKKYKEKVLLSELSEEEQKEIKEAEEKLVRTILKYVEEAAK
Observed value: 2.73

(I) S80T (designed binder) SMEEEVEKAAKEYEKKKKEAIEKHLEKLKAKDKEAAERFLKELEEAAKEYAKDEAKTMSEEEAKRRAKKYKEKVLLSELTEEEQKEIKEAEEKLVRTILKYVEEAAK
(II) K68S (designed binder) SMEEEVEKAAKEYEKKKKEAIEKHLEKLKAKDKEAAERFLKELEEAAKEYAKDEAKTMSEEEAKRRASKYKEKVLLSELSEEEQKEIKEAEEKLVRTILKYVEEAAK
Please indicate which item has the smaller measured apparent Kd (screen): I versus II Answer = label.
II
(II: 0.718 nM, I: 1.27 nM)

(I) L75R (designed binder) SMEEEVEKAAKEYEKKKKEAIEKHLEKLKAKDKEAAERFLKELEEAAKEYAKDEAKTMSEEEAKRRAKKYKEKVRLSELSEEEQKEIKEAEEKLVRTILKYVEEAAK
(II) A67T (designed binder) SMEEEVEKAAKEYEKKKKEAIEKHLEKLKAKDKEAAERFLKELEEAAKEYAKDEAKTMSEEEAKRRTKKYKEKVLLSELSEEEQKEIKEAEEKLVRTILKYVEEAAK
Could you tell me which of I and II has the lower apparent Kd (screen) reading? Give the label of your selection.
I
(I: 1.16 nM, II: 20.2 nM)

(P) E26M (designed binder) SMEEEVEKAAKEYEKKKKEAIEKHLMKLKAKDKEAAERFLKELEEAAKEYAKDEAKTMSEEEAKRRAKKYKEKVLLSELSEEEQKEIKEAEEKLVRTILKYVEEAAK
(Q) R96C (designed binder) SMEEEVEKAAKEYEKKKKEAIEKHLEKLKAKDKEAAERFLKELEEAAKEYAKDEAKTMSEEEAKRRAKKYKEKVLLSELSEEEQKEIKEAEEKLVCTILKYVEEAAK
(R) S77K (designed binder) SMEEEVEKAAKEYEKKKKEAIEKHLEKLKAKDKEAAERFLKELEEAAKEYAKDEAKTMSEEEAKRRAKKYKEKVLLKELSEEEQKEIKEAEEKLVRTILKYVEEAAK
(S) M2E (designed binder) SEEEEVEKAAKEYEKKKKEAIEKHLEKLKAKDKEAAERFLKELEEAAKEYAKDEAKTMSEEEAKRRAKKYKEKVLLSELSEEEQKEIKEAEEKLVRTILKYVEEAAK
(T) I87W (designed binder) SMEEEVEKAAKEYEKKKKEAIEKHLEKLKAKDKEAAERFLKELEEAAKEYAKDEAKTMSEEEAKRRAKKYKEKVLLSELSEEEQKEWKEAEEKLVRTILKYVEEAAK
Ordering: ascending apparent Kd (screen). In plain terms: list the labels in the order you were asked to.
P, S, Q, R, T
(P: 0.539 nM, S: 0.956 nM, Q: 2.48 nM, R: 4.83 nM, T: 12.5 nM)
